The reported measurements were obtained from the kinase profiling compilation of Christmann-Franck et al. (2016).

- STUDY_SYSTEM: CAMK1G (human) (UniProt Q96NX5)
- Sequence (Q96NX5 whole entry, looked up): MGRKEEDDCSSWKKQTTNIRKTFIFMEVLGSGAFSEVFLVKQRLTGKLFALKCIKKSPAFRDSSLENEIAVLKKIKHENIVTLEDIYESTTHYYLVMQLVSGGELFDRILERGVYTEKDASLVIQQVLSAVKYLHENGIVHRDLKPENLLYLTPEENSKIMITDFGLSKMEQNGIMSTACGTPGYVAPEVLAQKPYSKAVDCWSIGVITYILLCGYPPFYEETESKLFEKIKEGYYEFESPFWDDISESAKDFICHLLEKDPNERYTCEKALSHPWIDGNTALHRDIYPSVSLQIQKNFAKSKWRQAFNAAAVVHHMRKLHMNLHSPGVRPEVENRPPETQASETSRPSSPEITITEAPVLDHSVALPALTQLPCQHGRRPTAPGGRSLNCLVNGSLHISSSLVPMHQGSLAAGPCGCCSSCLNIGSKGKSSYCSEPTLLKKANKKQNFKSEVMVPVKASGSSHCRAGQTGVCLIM
- PROTOCOL: KINOMEscan competition binding
- ASSAY_CONDITIONS: compound 10.0 µM
TEST_READOUT: kinase still bound, per cent of control (%)
Numbers only here, please. The scale is %.

Recorded results for 5 molecules are shown here.
MOLECULE	UNIT_INFO	kinase still bound, per cent of control
COc1cc2c(Nc3ccc(NC(=O)c4ccccc4)cc3)ncnc2cc1OCCCN1CCOCC1	%	66
COc1cc(C)c(Sc2cnc(NC(=O)c3ccc(CNC(C)C(C)C)cc3)s2)cc1C(=O)N1CCN(C(C)=O)CC1 (centres undefined)	%	100
CCCS(=O)(=O)Nc1ccc(F)c(C(=O)c2c[nH]c3ncc(Cl)cc23)c1F	%	76
COc1cc2ncnc(Nc3cccc(Cl)c3)c2cc1OC	%	64
CCN(CCO)CCCOc1ccc2c(Nc3cc(CC(=O)Nc4cccc(F)c4)[nH]n3)ncnc2c1	%	73

Quick check: kinase still bound, per cent of control on CAMK1G (human) (UniProt Q96NX5), item CC1=C(C(=O)Nc2cc3cn[nH]c3cc2F)C(c2ccc(C(F)(F)F)cc2)CC(=O)N1 (centres undefined) ?
81

Quick check: kinase still bound, per cent of control on CAMK1G (human) (UniProt Q96NX5), item N#C/C(=C1/Nc2ccccc2S1)c1ccnc(NCCc2cccnc2)n1 ?
61

Quick check: kinase still bound, per cent of control on CAMK1G (human) (UniProt Q96NX5), item CC(=O)c1c(C)c2cnc(Nc3ccc(N4CCNCC4)cn3)nc2n(C2CCCC2)c1=O ?
20

Quick check: kinase still bound, per cent of control on CAMK1G (human) (UniProt Q96NX5), item COc1ccc(N(C(=O)Oc2cc(C(=O)Nc3cccc(C(F)(F)F)c3)ccc2C)c2ccnc(Nc3ccc(N4CCN(C)CC4)cc3)n2)c(OC)c1 ?
100
